Tested on: PC-3 prostate cancer cells
Test: WST1 cell viability assay
Assay type: cell-based, human
Conditions: Homo sapiens, PC-3, 100 μM, PC-3 cells, just before lysis; read-out: % inh WST-1 (100 μM)
Each record here notes measured inhibition at 100 µM.
State the answer as a number, implicitly in %.

Check out these entries, answers already filled in.
O=C(CCCNC(=O)c1cc(C(F)(F)F)cc(C(F)(F)F)c1)Nc1ccc(Cl)cc1 [Compound 2]	12
O=C(CC1CC(c2cc(C(F)(F)F)cc(C(F)(F)F)c2)=NO1)Nc1ccc(Cl)cc1 (centres unmarked) [Compound 23]	66

Incoming: inhibition at 100 µM lookup needed for O=C(CONC(=O)c1cc(C(F)(F)F)cc(C(F)(F)F)c1)Nc1cccc(Cl)c1 [Compound 10] , thanks.
Outgoing: 97

Incoming: Another molecule to look at: O=C(NCc1csc(-c2ccc(Cl)cc2)n1)c1cc(C(F)(F)F)cc(C(F)(F)F)c1 [Compound 18]
Outgoing: 0

Incoming: Another molecule to look at: O=C(NC1CC(=O)N(c2ccc(Cl)cc2)C1)OCc1cc(F)cc(F)c1 (centres unmarked) [Compound 46]
Outgoing: 67.5

Incoming: Another molecule to look at: O=C(Nc1ccc(Cl)cc1)C1CCCN(C(=O)c2cc(C(F)(F)F)cc(C(F)(F)F)c2)C1 (centres unmarked) [Compound 4]
Outgoing: 14

Incoming: Another molecule to look at: O=C(NCCCNc1ccc(Cl)cc1)c1cc(F)cc(F)c1 [Compound 43]
Outgoing: 73

Incoming: Another molecule to look at: O=C(Nc1cc(C(F)(F)F)cc(C(F)(F)F)c1)C1CC(=O)N(c2ccc(Cl)cc2)C1 (centres unmarked) [Compound 51]
Outgoing: 74.6

Incoming: Another molecule to look at: O=C(Nc1ccc(Cl)cc1)C1CCN(C(=O)c2cc(C(F)(F)F)cc(C(F)(F)F)c2)CC1 [Compound 5]
Outgoing: 39

Incoming: Another molecule to look at: O=C(NCCCNc1ccc(Cl)cn1)c1cc(C(F)(F)F)cc(C(F)(F)F)c1 [Compound 44]
Outgoing: 39.4

---

Test system: PC-3 prostate cancer cells
Assay: WST1 cell viability assay
Format: cell-based, human
Settings: Homo sapiens, PC-3, 100 μM, PC-3 cells, just before lysis; read-out: % inh WST-1 (100 μM)
Each record here notes measured inhibition at 100 µM.
State the answer as a number, implicitly in %.

Check out these entries, answers already filled in.
O=C1CC(NC(=O)c2cc(C(F)(F)F)cc(C(F)(F)F)c2)c2cc(Cl)ccc2N1 (stereo not shown)	-2.7
O=C(NCCC(=O)N1CCc2cc(Cl)ccc21)c1cc(C(F)(F)F)cc(C(F)(F)F)c1	0
O=C1Nc2ccc(Cl)cc2C1=CNC(=O)c1cc(C(F)(F)F)cc(C(F)(F)F)c1	17.7
O=C(CCc1cnnn1-c1cc(C(F)(F)F)cc(C(F)(F)F)c1)Nc1ccc(Cl)cc1	-11.8
COc1cc(N2CC(NC(=O)c3cc(C(F)(F)F)cc(C(F)(F)F)c3)CC2=O)ccc1Cl (stereo not shown)	42.2

Incoming: Request: inhibition at 100 µM, test system PC-3 prostate cancer cells, entry O=C(CCNCc1cc(C(F)(F)F)cc(C(F)(F)F)c1)Nc1ccc(Cl)cc1
Outgoing: 92

Incoming: Another compound to look at: O=C(CONC(=O)c1cc(C(F)(F)F)cc(C(F)(F)F)c1)Nc1ccc(Cl)cc1
Outgoing: 91

These measurements were taken from patent US20120252792A1.
